- System: Nicotinate-nucleotide adenylyltransferase NadD (Staphylococcus aureus N315)
- measurement-notes: inhibitors of S. aureus NadD, primary screen, biochemical, colorimetric, uHTS (AID 602399)
- condition-summary: purified NadD enzyme, colorimetric absorbance read-out; at 20 µM
Out of some 360,000 compounds screened, about 2,800 (0.78%) were called active. Rule as the data show it: active = inhibition above about 26%; inactive = the rest. For the sample, actives were picked, then their nearest neighbours and some compounds at random.
Possible outcomes: active, inactive

molecule | assigned-category
Cc1ccc2nc(SCC(=O)N3CC(C)OC(C)C3)nc(=O)n2c1 (stereo not given) | inactive
CCOC(=O)/C=c1\s/c(=C\c2ccc(C#N)cc2)c(=O)n1CC(=O)Nc1cccc(C)c1C | active
COc1cccc(C(=O)NC(=O)Nc2nc(C)cc(C(F)(F)F)n2)c1 | inactive
CNC[C@H]1Oc2c(NC(=O)C3CCCCC3)cccc2C(=O)N([C@H](C)CO)C[C@@H]1C | inactive
O=C(CSc1nc2ccc(Nc3nc(N4CCOCC4)nc(N4CCOCC4)n3)cc2s1)NCc1ccco1 | inactive

---

- Tested on: Nicotinate-nucleotide adenylyltransferase NadD (Staphylococcus aureus N315)
- measurement-notes: inhibitors of S. aureus NadD, primary screen, biochemical, colorimetric, uHTS (AID 602399)
- condition-summary: purified NadD enzyme, colorimetric absorbance read-out; at 20 µM; stronger effect = higher value
The campaign covered roughly 360,000 compounds. About 2,800 (0.78%) were called active. This is one part of a sample in which actives are shown more often than they occur.
Listing of entries alongside the reported inhibition.

mol-smiles | inhibition [%]
COc1ccc(Cl)cc1C(=O)NNC(=S)NC1CCCC1 | 2.3
C=CC1=C(C(=O)O)N2C(=O)[C@@H](NC(=O)/C(=N\OCC(=O)O)c3csc(N)n3)[C@H]2SC1 | 15.8
O=C(Nc1ccc(N2CCN(C(=O)c3cccs3)CC2)cc1)c1cccnc1Cl | 4.87
